Test: inhibitors of Chlamydomonas gravitaxis, primary screen, whole organism, Chlamydomonas reinhardtii, WT vs cilia-less mutant, absorbance, 96-well (AID 463189);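 also: 0% = wild type cc124 cells in DMSO and 100% = ciliumless bld1 mutant cells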
Conditions: OD600 absorbance, 2 days, at 10 µM, stronger effect = higher value
This listing pairs compounds with measured inhibition.
Please give a number only; it is taken to be in %.

As a guide, the following entries are already answered.
COC(=O)C(NC(=O)c1ccco1)(Nc1nc(C)cs1)C(F)(F)F (stereo unspecified) = 14.1
CCNC(=O)COn1c(SCC(=O)NCC)nc2ccccc2c1=O = -4.94

Task: I have this compound here, O=C(c1ccc2c3c(cccc13)C(=O)N(O)C2=O)N1CCCCC1 , and I need its recorded inhibition.
Output: 35.8

Task: I have this compound here, FC(F)(F)c1cccc(-n2cccc2/C=N/n2cnnc2)c1 , and I need its recorded inhibition.
Output: 13.6

Task: I have this compound here, CCC1CC2(C)NC(=O)c3c(sc4c3CC(C)(C)OC4)N2C1=O (stereo unspecified) , and I need its recorded inhibition.
Output: 31.2

Task: I have this compound here, CCN(CC)CCOC(=O)c1c(C)n(C)c2ccc(OC)cc12 , and I need its recorded inhibition.
Output: 32.6

Task: I have this compound here, Cc1cc(=O)oc2ccc(OCC(=O)N3CCc4ccccc43)cc12 , and I need its recorded inhibition.
Output: 1.65

###

Assay: DUSP6 inhibitors restoring Erk phosphorylation by chemical complementation, primary imaging in DUSP6-transfected HeLa (AID 609)
Settings: HeLa MKP-3 transfected, phospho-Erk imaging KS statistic; measured here: cell density z-score; at 10 µM; cells stimulated with TPA for 15 min
measured_property: z-score
Form: value (number only, do not type unit).

As a guide, the following entries are already answered.
Cc1cccc(-c2nc(C#N)c(NC3CCCCC3)o2)c1 = 1.1
CCCn1nnc(NC(=O)c2cc(Br)cc(Br)c2OC)n1 = 0.877
CCOC(=O)/C(C#N)=C1/SC(CCO)C(=O)N1c1ccccc1 (centres undefined) = -0.811
CCc1cc(=O)oc2cc(C)c(CN3CCCC(C)C3)c(O)c12 (centres undefined) = 1.56
CCCCc1[nH]c(=O)c(C#N)c2c1CSC(C)(C)C2 = 0.749
Cn1cccc1/C=N/n1cnnc1 = 0.378

Task: I have this compound here, CCOC(=O)NC1(C(F)(F)F)C(=O)NC(C)=C1C#N (centres undefined) , and I need its recorded z-score.
Output: -0.0977

Task: I have this compound here, Brc1ccc(-c2cnnc(N3CCCC3)n2)cc1 , and I need its recorded z-score.
Output: -1.38

Task: I have this compound here, Cc1cccn2c(=O)c(/C=C(\C#N)S(=O)(=O)c3ccccc3)c(N3CCN(C)CC3)nc12 , and I need its recorded z-score.
Output: -0.688

Task: I have this compound here, C=CCN(CC=C)c1nc2ccccc2nc1C(C#N)C(=O)OC(C)C (centres undefined) , and I need its recorded z-score.
Output: -0.0253

Task: I have this compound here, Cn1c(N)c(C#N)c(C#N)c1-c1ccccc1 , and I need its recorded z-score.
Output: -0.336

Task: I have this compound here, CCN(CC)Cc1cc(C(C)=O)ccc1OCC(C)C , and I need its recorded z-score.
Output: -0.466

Task: I have this compound here, CCOC(=O)CSc1nnc(C)c(=O)[nH]1 , and I need its recorded z-score.
Output: -0.66

Task: I have this compound here, Oc1oc(-c2ccco2)nc1C=Nc1cccc(Cl)c1 , and I need its recorded z-score.
Output: -0.184

Task: I have this compound here, COc1cc(Cn2ccnc2)c(OC)cc1Cn1ccnc1 , and I need its recorded z-score.
Output: 0.988

Task: I have this compound here, Cc1nc(NCCCO)c(C#N)c2c1COC(C)(C)C2 , and I need its recorded z-score.
Output: -0.306

Task: I have this compound here, O=c1[nH]c(CN(CCO)CCO)nc2c1C1(CCCCC1)Cc1ccccc1-2 , and I need its recorded z-score.
Output: 0.688

Task: I have this compound here, CCOC(=O)C1=Nc2ccccc2C1=[N+]=[N-] , and I need its recorded z-score.
Output: -0.487

Task: I have this compound here, O=C(COc1ccc(-c2nnc(N3CCCCC3)c3ccccc23)cc1)N1CCCCC1 , and I need its recorded z-score.
Output: 0.333

Task: I have this compound here, COc1ccc(C(O)C(CN2CCOCC2)c2ccccc2)cc1 (centres undefined) , and I need its recorded z-score.
Output: -0.497

Task: I have this compound here, CCOC(=O)NC(Nc1sc2c(c1C(N)=O)CCCC2)(C(=O)OCC)C(F)(F)F (centres undefined) , and I need its recorded z-score.
Output: 0.203

Task: I have this compound here, COc1cccc(CNc2ncc(Br)cc2Br)c1O , and I need its recorded z-score.
Output: -1.34
